- experimental.target: rat diaphorase (Rattus norvegicus, UniProt P05982)
- Construct: purchased Sigma
- Sequence (P05982 2-274 limits assumed): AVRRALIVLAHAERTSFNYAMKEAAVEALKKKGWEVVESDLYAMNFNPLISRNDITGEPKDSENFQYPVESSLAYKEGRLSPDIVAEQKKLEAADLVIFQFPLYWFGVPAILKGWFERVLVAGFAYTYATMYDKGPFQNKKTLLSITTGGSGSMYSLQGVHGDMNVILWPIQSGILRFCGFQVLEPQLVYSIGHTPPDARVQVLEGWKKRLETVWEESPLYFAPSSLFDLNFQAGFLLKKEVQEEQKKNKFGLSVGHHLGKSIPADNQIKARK
- Assay type: biochemical
- stated.conditions: 30 min; 10 uM NADH
Fluorescence time course, Rat values for the molecules below.
Only the number, expressed in FLUs, is required.

Before answering, review these 3 worked examples.
CC1=CC(=O)C(C)=C(C(C)(C)CC(=O)N(C)CCN(C)C(=O)Oc2ccc3c(c2)Oc2cc(O)ccc2C32OC(=O)c3ccccc32)C1=O (stereo not shown): 133278
CC1=C(C)C(=O)C(C(C)(C)CC(=O)N(C)CCN(C)C(=O)Oc2ccc3c(c2)Oc2cc(O)ccc2C32OC(=O)c3ccccc32)=C(C)C1=O (stereo not shown): 161355
CC1=CC(=O)C(C)=C(C(C)(C)CC(=O)N(C)CCN(C)C(=O)Oc2ccc3c(c2)Oc2cc(OC(=O)N(C)CCN(C)C(=O)CC(C)(C)C4=C(C)C(=O)C=C(C)C4=O)ccc2C32OC(=O)c3ccccc32)C1=O: 3407

Now look at this entry.
I'd like to know its Fluorescence time course, Rat. The molecule in question is `CC1=C(C)C(=O)C(C(C)(C)CC(=O)N(C)CCN(C)C(=O)Oc2ccc3c(c2)Oc2cc(OC(=O)N(C)CCN(C)C(=O)CC(C)(C)C4=C(C)C(=O)C(C)=C(C)C4=O)ccc2C32OC(=O)c3ccccc32)=C(C)C1=O` 4460
